# Tested on: UO-31 renal
# ASSAY_SUMMARY: NCI tumour cell line growth inhibition, 48 h
Field: TGI. Provide a value for each of the molecules that follow.

Some solved entries appear below for comparison.
{"columns": ["MOLECULE", "RESULT"],
 "data": [
  ["CC(C)=CCc1c(O)cc(O)c2c1OC(c1ccc(O)cc1)C(O)C2=O (stereo unspecified)", "90.4 µM"],
  ["CCOC(=O)/C=C/CC(C)(C)COC(C)=O", "> 10 µM"]
]}

Can you give me TGI for all of these, one by one?
1. O=C(CSc1ncccn1)N/N=C/c1ccccc1OCc1ccccc1
2. COc1ccc(C(=O)COc2cccc(/C=C3\COc4ccc5ccccc5c4C3=O)c2)cc1

Marked response:
1. > 100 µM
2. > 100 µM

Can you give me TGI for all of these, one by one?
1. COc1cccc(Nc2nc(C)c([N+](=O)[O-])c(Nc3cccc(OC)c3)n2)c1
2. O=S(=O)(/N=S(/Nc1ccccc1)C(Cl)Cl)c1ccccc1 (stereo unspecified)
3. Fc1cc(F)c(COc2cc(Cn3cnc4c(Cl)nc(Cl)nc43)ccc2C23CC4CC(CC(C4)C2)C3)cc1F
4. Nc1cc(Cl)cc2cc(Cl)cnc12
5. CCN(CC)CCN1CC(O)=C(c2nc(-c3ccc(Cl)cc3)cs2)C1=N
6. Cc1noc(C)c1CCCOC1COc2ccccc2OCCOCCOc2ccccc2OC1

Marked response:
> 100 µM
> 100 µM
31.6 µM
> 100 µM
20.2 µM
> 100 µM

Exam item: Give reported TGI for CC(=O)OC1C=C(C=O)C(O)(C=O)C2(C)CCCC(C)(C)C12 (stereo unspecified) (UO-31 renal)
Marked response: 5.66 µM

====

# System: RPMI-8226 leukemia
# ASSAY_SUMMARY: NCI tumour cell line growth inhibition, 48 h
Where a SMILES comes first, the peptide text is derived from it. [ ]: non-standard residue; d: D form. Phe(4-Cl) = N[CH](Cc1ccc(Cl)cc1)C(=O)O
QUANTITY_MEASURED: TGI

Some solved entries appear below for comparison.
{"columns": ["MOLECULE", "TGI"],
 "data": [
  ["Cc1ccc(Nc2nc3c(s2)C(=O)c2ccccc2C3=O)c(C)c1", "45.6 µM"],
  ["CC(O)C(NC(=O)C(Cc1ccccc1)NC(=O)C(NC(=O)C(CCCCN)NC(=O)C(Cc1c[nH]c2ccccc12)NC(=O)C(Cc1ccc(O)cc1)NC(=O)C(Cc1ccc(Cl)cc1)NC(=O)C(N)Cc1ccccc1)C(C)O)C(N)=O (stereo not given) (H-F[Phe(4-Cl)]YWKTFT-NH2; configuration not given here)", "33.5 µM"],
  ["Cc1ccc(-c2c(C#N)c(-c3ccccc3)n(NS(=O)(=O)c3ccc(C)cc3)c(=O)c2C#N)cc1", "31.6 µM"]
]}

Can you give me TGI for all of these, one by one?
1. NC(=S)N/N=C/c1ccc(OC(=O)COc2ccc(Cl)cc2)cn1
2. NCc1ccc(-c2ccc(CN)s2)s1
3. O=C(CCl)Nc1ccc(Cl)cc1

Marked response:
1: > 100 µM; 2: > 100 µM; 3: 9.45 µM

Can you give me TGI for all of these, one by one?
1. Cc1cc(C)c(C(=O)CC(=O)c2cccnc2)c(C)c1
2. [O-][n+]1nc(N2CCOCC2)nc2ccccc21
3. CC(=O)OC1=NN=C2COC(c3ccccc3OC(C)=O)=NN2C1
4. COc1cc(OC)c(/C=C/C(=O)c2c(OC)cccc2OC)c(OC)c1

Marked response:
1. > 100 µM
2. > 100 µM
3. > 50 µM
4. > 100 µM

Can you give me TGI for all of these, one by one?
1. O=C(O)CN(c1ccccc1)S(=O)(=O)c1ccccc1[N+](=O)[O-]
2. CC(C)N(C(=O)C12CC3CC(CC(C3)C1)C2)C(C)C
3. Cc1ccc(N(C(=O)CC(=O)NN)C(=O)c2ccccc2Cl)cc1
4. CC12Nc3c(Cl)cc(Cl)cc3N1C(=O)c1ccccc12 (stereo not given)
5. CCCCNC(=S)Nc1nc(C(=O)NNC(=S)NCC)cs1
6. COc1cc2oc(-c3ccc(O)cc3)cc(=O)c2c(OC)c1OC
7. C=CCCCCCCCCC(=O)NS(=O)(=O)c1ccccc1

Marked response:
1: > 100 µM; 2: > 50 µM; 3: > 100 µM; 4: > 100 µM; 5: > 100 µM; 6: > 100 µM; 7: > 100 µM
